# ASSAY: Nuclear factor erythroid 2-related factor 2/antioxidant responsive element (Nrf2/ARE) small molecule agonists: luciferase reporter gene qHTS assay in human keratinocytes (AID 1919969); further: nearly all actives have a fitted effect of over 35% in size; further: potency means the concentration at half of the fitted maximal effect
# TEST_CONDITIONS: KeratinoSens HaCaT ARE-luciferase, luminescence, 24 h; series mostly up to 92.4 µM
Records with an inconclusive call do not appear. Activity calls are given as the source filed them. The call rests on the fitted dose curve.
OBSERVABLE: Potency

> print(dat)
                                    compound        meas.value
 1  C=CC[N+]1([C@H]2C[C@H]3[C@@H]4CC[C@H]5C[C@H](OC(C)=O)[C@@H](N6CCCCC6)C[C@]5(C)[C@H]4CC[C@]3(C)[C@H]2OC(=O)CC)CCCCC1          inactive
 2  C=CC(C)(CCC=C(C)C)OC(=O)/C=C/c1ccccc1 (stereo not given)  68.6 µM (active)
 3              CCCC(C)CC (stereo not given)          inactive
 4                 COc1cc([N+](=O)[O-])ccc1N          inactive
 5  COC(=O)C1=C(C)NC(C)=C(C(=O)OCCc2ccc(N3CCN(C(c4ccccc4)c4ccccc4)CC3)cc2)C1c1cccc([N+](=O)[O-])c1 (stereo not given)          inactive
 6  CC1(C)CCC(C)(C)c2cc(C(=O)Nc3ccc(C(=O)O)cc3)ccc21          inactive
 7  CCN(Cc1cccc(S(=O)(=O)O)c1)c1ccc(C(=C2C=CC(=[N+](CC)Cc3cccc(S(=O)(=O)O)c3)C=C2)c2ccc(O)cc2S(=O)(=O)[O-])cc1          inactive
 8  COc1cc(NC(C)CCCN)c2ncccc2c1 (stereo not given)  11.9 µM (active)
 9                               N#CCCNCCC#N          inactive
10         O[Si](c1ccccc1)(c1ccccc1)c1ccccc1          inactive

---

# ASSAY: p53 small molecule agonists, cell-based qHTS assay with rat liver microsomes: qHTS cell viability counter screen (AID 1963580); further: nearly all actives have a fitted effect of over 45% in size
# TEST_CONDITIONS: p53RE-bla HCT-116 + rat microsomes, ATP viability, 16 h; series mostly up to 66 µM
Inconclusive results are not listed. Calls of active or inactive are those of the source. Calls follow the shape of the full dose curve.
Possible outcomes: active, inactive

> print(dat)
                                    molecule  class.name
 1  Nc1nc(F)nc2c1ncn2[C@@H]1O[C@H](CO)[C@@H](O)[C@@H]1O    inactive
 2  OC(CCN1CCCCC1)(c1ccccc1)C1CCCCC1 (stereo not drawn)    inactive
 3                           CCCCCCCCCCCCCBr    inactive
 4                      CCCCCCOC(=O)c1ccccc1    inactive
 5            O=C1c2ccccc2C(=O)c2c(Cl)cccc21      active
 6         CCc1cc(C(C)(C)C)c(O)c(C(C)(C)C)c1    inactive
 7                     O=C(O)CCCCCCCCCC(=O)O    inactive
 8          Nc1nnc(-c2ccc([N+](=O)[O-])o2)o1    inactive
 9            CCCCNc1ccc(C(=O)OCCN(CC)CC)cc1    inactive
10                              N#Cc1ccccc1O    inactive
11  C[C@H]1C[C@H]2[C@@H]3CCC4=CC(=O)C=C[C@]4(C)[C@@]3(Cl)[C@@H](O)C[C@]2(C)[C@@]1(O)C(=O)CO    inactive
12  COc1ccccc1OCC1CNC(=O)O1 (stereo not drawn)    inactive
13                     CC(C)(C)C(=O)c1ccccc1    inactive
